Tested on: LNCaP xenograft
Test: Biodistribution of 68Ga-labeled compounds in mice bearing LNCaP xenograft
Type: in vivo
Conditions: Brain, 1 h p.i.
Excerpt: All chemicals and solvents were obtained from commercial sources, and used without further purification. PSMA-targeted peptides were synthesized using a solid phase approach on an AAPPTec (Louisville, KY) Endeavor 90 peptide synthesizer. […]
Biodistribution, Brain (Avg) strictly less than 0.03 % ID/g = fulfilled. Otherwise not fulfilled.

**Query** Determine if O=C(O)CSCC(NC(=O)NC(Cc1cn(CCNC(=O)C(Cc2c3ccccc3cc3ccccc23)NC(=O)C2CCC(CNC(=O)CN3CCN(CC(=O)O)CCN(CC(=O)O)CCN(CC(=O)O)CC3)CC2)nn1)C(=O)O)C(=O)O.[68Ga] (stereo not shown) [^68Ga-CCZ01186] shows Biodistribution, Brain (Avg) strictly lower than 0.03 % ID/g.
**Result** fulfilled

**Query** Determine if O=C(O)CCCC(NC(=O)NC(COCCNC(=O)C(Cc1c2ccccc2cc2ccccc12)NC(=O)C1CCC(CNC(=O)CN2CCN(CC(=O)O)CCN(CC(=O)O)CCN(CC(=O)O)CC2)CC1)C(=O)O)C(=O)O.[68Ga] (stereo not shown) [^68Ga-CCZ02011] shows Biodistribution, Brain (Avg) strictly lower than 0.03 % ID/g.
**Result** fulfilled

**Query** Determine if O=C(O)CCCC(NC(=O)NC(CNC(=O)CNC(=O)C(Cc1c2ccccc2cc2ccccc12)NC(=O)C1CCC(CNC(=O)CN2CCN(CC(=O)O)CCN(CC(=O)O)CCN(CC(=O)O)CC2)CC1)C(=O)O)C(=O)O.[68Ga] (stereo not shown) [68Ga-CCZ01198] shows Biodistribution, Brain (Avg) strictly lower than 0.03 % ID/g.
**Result** fulfilled

**Query** Determine if O=C(O)CCC[C@H](OC(=O)N[C@@H](CCCCNC(=O)[C@H](Cc1c2ccccc2cc2ccccc12)NC(=O)[C@H]1CC[C@H](CNC(=O)CCc2ccc(O)c(CN(CCN(CC(=O)O)Cc3cc(CCC(=O)O)ccc3O)CC(=O)O)c2)CC1)C(=O)O)C(=O)O.[68Ga] [^68Ga-AR-113-1] shows Biodistribution, Brain (Avg) strictly lower than 0.03 % ID/g.
**Result** not fulfilled

**Query** Determine if O=C(O)CSCC(NC(=O)NC(Cc1ccc(NC(=O)C(Cc2c3ccccc3cc3ccccc23)NC(=O)C2CCC(CNC(=O)CN3CCN(CC(=O)O)CCN(CC(=O)O)CCN(CC(=O)O)CC3)CC2)cc1)C(=O)O)C(=O)O.[68Ga] (stereo not shown) [^68Ga-CCZ01188] shows Biodistribution, Brain (Avg) strictly lower than 0.03 % ID/g.
**Result** not fulfilled
